System: DU-145 prostate
protocol_description: NCI tumour cell line growth inhibition, 48 h
property_label: TGI

Worked set:
1) CC(C)[Si](Oc1cc2c3c(ccc2c(O)c1[C@@H](C)CO[Si](C)(C)C(C)(C)C)C(C)(C)CCC3)(C(C)C)C(C)C | > 100 µM
2) Nc1nc(Cl)cc(NCC2(CO)CC(c3ccccc3)C2)n1 (configuration not stated) | > 100 µM

Give a short answer stating reported TGI for NS(=O)(=O)c1ccc(N=Nc2ccc(O)c(O)c2)cc1 .
> 100 µM

Look up and state reported TGI for Cc1cc(CN(Cc2ccccc2)Cc2nc3ccccc3[nH]2)c(O)c(CN(Cc2nc3ccccc3[nH]2)Cc2nc3ccccc3[nH]2)c1
> 100 µM

Indicate its recorded TGI; the compound in question is N#Cc1c(N)nc2c(N=Nc3ccccc3)c(N)nn2c1Nc1ccccc1
39.8 µM

Determine its reported TGI: [CH3][Sn]([CH3])([CH3])[O]C(=O)C(O)c1ccccc1 (configuration not stated)
> 100 µM

Let me know recorded TGI for NC(Cc1ccc(O)cc1)C(=O)N/N=C/c1ccc(N(CCCl)CCCl)cc1 (configuration not stated) , thanks.
34.7 µM

Please look at this compound and report its TGI: O=C(CCCCCNC1=CC(=O)c2ccccc2C1=O)NCCC[Te]c1ccccc1
1.9 µM

Give a short answer stating reported TGI for COc1cc(C2CC(=O)c3c(C)nn(-c4nc5ccccc5[nH]4)c3C2)cc(OC)c1OC (configuration not stated) .
> 100 µM

Indicate its recorded TGI; the compound in question is CC(=O)OCC1OC(N2C(=O)CC(N)=Nc3ccccc32)C(OC(C)=O)C(OC(C)=O)C1OC(C)=O (configuration not stated)
> 100 µM

// Input: CCOC(=O)c1c(C(F)(F)F)n([O-])c2ccc(Cl)cc2[n+]1=O . Output its TGI only.
3.5 µM

# return recorded TGI for input Cc1ccc(C2NC(=S)N3C(c4ccc(C)cc4)NC(=S)N23)cc1 (configuration not stated)
13.6 µM

In one line, give reported TGI of the entry Cc1cn(C2CC(N=[N+]=[N-])C(CO)O2)c(=O)[nH]c1=O (configuration not stated) .
> 1000 µM

Give reported TGI value for CC(C)CNC(=O)c1c(NC(=O)c2ccccc2)sc2[nH]c(=O)n(-c3ccccc3)c(=O)c12
> 100 µM

Note down TGI recorded for CC(=O)N1N=C(c2ccc3ccccc3c2O)CC1c1ccc(Cl)cc1Cl (configuration not stated)
> 100 µM

Answer with the recorded TGI for the compound listed here: O=C(O)CN(CC(=O)O)c1ccccc1
> 100 µM

Report measured TGI; entry is COc1ccccc1N(C(C)=O)C1=C(Cl)C(=O)c2ccccc2C1=O
12 µM

---

System: NCI-H522 lung
protocol_description: NCI tumour cell line growth inhibition, 48 h
property_label: TGI

These solved cases illustrate the format of a correct answer.
1) COc1ccc(-c2nnc(Nc3nc(O)c(C4=c5cc(OC(F)(F)F)ccc5=NC4=O)s3)o2)cc1 | > 100 µM
2) CC(C)CNC(=O)c1c(NC(=O)c2ccccc2)sc2[nH]c(=O)n(-c3ccccc3)c(=O)c12 | > 100 µM

Give the observed TGI of CC(=O)N1N=C(c2ccc3ccccc3c2O)CC1c1ccc(Cl)cc1Cl (stereo unspecified) for NCI-H522 lung.
> 100 µM

Supply TGI measured with NCI-H522 lung for COC(=N)c1ncn(Cc2ccccc2)c1N .
> 100 µM

Please tell me the measured TGI for Clc1cc2nnn(C3CCCCO3)c2cc1Cl (stereo unspecified) ; system: NCI-H522 lung.
> 100 µM

Name the recorded TGI of NC(Cn1ccc(=O)c(O)c1)C(=O)O (stereo unspecified) , assay system NCI-H522 lung.
> 100 µM

# return TGI of COC(=O)[C@H]1CC(=O)C=C2CCCC21 (stereo partly specified) (system: NCI-H522 lung)
> 100 µM

Fill in TGI for COc1ccc2c(c1)CC[C@@H]1C2CC[C@]2(C)C(=O)N(CCN3CCCCC3)C(=O)CC12 (stereo partly specified) tested with NCI-H522 lung.
> 100 µM

// fetch TGI for O=c1c(-c2ccc3c(c2)OCO3)coc2c(CO)c(O)ccc12 ; system: NCI-H522 lung
20.8 µM

Please respond with reported TGI (system NCI-H522 lung) for O=C(Cc1nc2ccc(C(=O)c3ccccc3)cc2[nH]c1=O)C(=O)Nc1ccc(C(F)(F)F)cc1[N+](=O)[O-] .
> 100 µM

Tell me TGI of Cc1ccc([S+](c2ccccc2)c2cc(C)ccc2C)cc1 (stereo unspecified) when tested on NCI-H522 lung.
28.2 µM

Look up and report TGI, with NCI-H522 lung as system, for CNC(=O)C1CCC(=O)N1CN(C(C)=O)c1ccccc1 (stereo unspecified)
> 100 µM

Tell me its TGI on NCI-H522 lung: O=C1CCCC(=O)N1n1c(Cc2ccc(Cl)cc2)n[nH]c1=O
> 100 µM

Write TGI of CCSC1=C(C#N)C2(CCCCC2)C2=C(CC(C)(C)CC2=O)N1 ; system used: NCI-H522 lung
> 100 µM

Ref: PubChem BioAssay (NCI)
